# key: entry, value: log10 TGI
# System: NCI-H460 lung
# Test: NCI tumour cell line growth inhibition, 48 h
Recorded metric: log10 TGI (log10 of the value in µM)

[
  {
    "Compound": "CC(C)c1ccc(C(c2ccc(OCC(=O)O)cc2)c2ccc(C(C)C)cc(=O)c2O)c(O)c(=O)c1",
    "Observed value": 0.92
  },
  {
    "Compound": "Cc1ccc2c3c(c(=O)[nH]c2c1)C1(C(C#N)=C(N)O3)c2cc(Br)ccc2-c2ccc(Br)cc21",
    "Observed value": 0.67
  },
  {
    "Compound": "Cc1ccc(NC(=S)N/N=C(/c2ccccc2)c2ccccn2)cc1",
    "Observed value": 0.85
  },
  {
    "Compound": "O=S1(=O)N(CCNc2nccc(-c3c(-c4cccc(O)c4)nc4sccn34)n2)CCN1Cc1ccccc1",
    "Observed value": 1.23
  },
  {
    "Compound": "C=C1CC[C@@H]2[C@](C)(COC(C)=O)[C@H](OC(C)=O)CC[C@@]2(C)[C@@H]1CC(Nc1ccc(S(=O)(=O)Nc2ncccn2)cc1)C1=CCOC1=O (some centres not stated)",
    "Observed value": 0.61
  },
  {
    "Compound": "C/C=C(/C)C(=O)O[C@H]1C[C@@H]2[C@@H](O)c3occ(C)c3C[C@]2(C)[C@@H](C)C1",
    "Observed value": 1.67
  },
  {
    "Compound": "CC(C)=CC(=O)C[C@H]1C(=O)O[C@@H]2C[C@H]3C(C)=CC(=O)[C@@H](O)[C@]3(C)[C@H]3[C@@]4(O)OC[C@]32[C@@H]1[C@@H](C)[C@H]4O",
    "Observed value": -0.13
  },
  {
    "Compound": "COc1ccccc1Cn1cc2c(c1-c1ccccc1)CCc1cnoc1-2",
    "Observed value": 1.26
  },
  {
    "Compound": "N#Cc1nc(C2=C(Cl)c3ccccc3OC2)[nH]c1C#N",
    "Observed value": 1.88
  },
  {
    "Compound": "CC(=O)O.[Au].c1ccc([PH+](c2ccccc2)c2ccccc2)cc1",
    "Observed value": 1.87
  },
  {
    "Compound": "C=C1C(=O)O[C@H]2[C@H]1CC/C(COC(=O)c1cc3ccccc3s1)=C\\CC[C@@]1(C)O[C@@H]21",
    "Observed value": 0.74
  },
  {
    "Compound": "O=C(/C=C\\n1cnc(-c2cc(C(F)(F)F)cc(C(F)(F)F)c2)n1)NNc1cnccn1",
    "Observed value": 0.50
  },
  {
    "Compound": "O=C(O)[C@@H]1CCCCN1Cc1cc2cc3c(cc2c2cc(OCc4ccccc4)ccc12)OCO3",
    "Observed value": 0.53
  },
  {
    "Compound": "COc1cc2c3c(n(CCNCCCNCCn4c5c(c6cc(OC)c(OC)cc6c4=O)C(=O)c4ccccc4-5)c(=O)c2cc1OC)-c1ccccc1C3=O",
    "Observed value": 0.67
  },
  {
    "Compound": "NC(N)=N/N=C/c1c(-c2cccc([N+](=O)[O-])c2)nc2n1CCS2",
    "Observed value": 1.73
  }
]

---

# Test system: A498 renal
# Test: NCI tumour cell line growth inhibition, 48 h
Where a SMILES comes first, the peptide text is derived from it. The star is where a group is joined. Cbz = O=C(OCc1ccccc1)*; Boc = CC(C)(C)OC(=O)*; tBu = CC(C)(C)*
Recorded metric: TGI

[
  {
    "Compound": "CC(OC(C)(C)C)C(NC(=O)C(CCCCNC(=O)OC(C)(C)C)NC(=O)C(Cc1c[nH]c2ccccc12)NC(=O)C(Cc1ccccc1)NC(=O)OCc1ccccc1)C(=O)NC(Cc1ccccc1)C(=O)O (stereo not drawn) (Cbz-FWK(Boc)T(tBu)F-OH; configuration not given here)",
    "Assayed system": "A498 renal",
    "Observed value": "> 100 µM"
  },
  {
    "Compound": "CC12CCC([C@H](C(O)C3CCCCC3)C1=O)C2(C)C (stereo partly drawn)",
    "Assayed system": "A498 renal",
    "Observed value": "> 100 µM"
  },
  {
    "Compound": "CC(C)=CC(=O)C[C@H]1C(=O)O[C@@H]2C[C@H]3C(C)=CC(=O)[C@@H](O)[C@]3(C)[C@H]3[C@@]4(O)OC[C@]32[C@@H]1[C@@H](C)[C@H]4O",
    "Assayed system": "A498 renal",
    "Observed value": "1.15 µM"
  }
]

---

Below, each entry is listed with its recorded TGI.
# System: BT-549 breast
# Test: NCI tumour cell line growth inhibition, 48 h

[
  {
    "Compound": "Cc1cccc2c(N)c3cccc(C(=O)NCC[N+](C)(C)Cc4c([N+](=O)[O-])ncn4C)c3nc12",
    "TGI": "> 100 µM"
  },
  {
    "Compound": "CON(C)C(=O)N1N=C(c2cc(F)ccc2F)SC1(CCCN)c1ccccc1 (stereo not drawn)",
    "TGI": "17.5 µM"
  },
  {
    "Compound": "COC(=O)C(NC(=O)c1ccccc1)c1ccco1 (stereo not drawn)",
    "TGI": "> 100 µM"
  },
  {
    "Compound": "O=[N+]([O-])c1cccc2nc3ccccc3c(NCCC[N+]3([O-])CCOCC3)c12",
    "TGI": "1.4 µM"
  },
  {
    "Compound": "Cc1ccc(NC(=O)c2cccc(OP(=O)(O)Nc3ccc(C)cc3)c2)cc1",
    "TGI": "> 100 µM"
  },
  {
    "Compound": "Cn1cnc([N+](=O)[O-])c1[Se]c1nc(N)nc2c1ncn2C1OC(CO)C(O)C1O (stereo not drawn)",
    "TGI": "> 100 µM"
  },
  {
    "Compound": "CCCCCN(CCCCC)CC(O)c1ccc(Cl)c2ccccc12 (stereo not drawn)",
    "TGI": "33.7 µM"
  },
  {
    "Compound": "Cc1ccc2c(c1)CN(C(=O)CCC(=O)OCc1ccccc1)c1ccc(C)cc1CN2C(=O)CCC(=O)OCc1ccccc1",
    "TGI": "> 100 µM"
  },
  {
    "Compound": "COc1ccc2nc3cc(Cl)ccc3c(NCCN)c2c1",
    "TGI": "3.39 µM"
  },
  {
    "Compound": "C=C1CC[C@H](O)C(C)(C)[C@@H]1CC/C(C)=C/CC/C=C(\\C)CC/C=C(\\C)CCC=C(C)C",
    "TGI": "> 100 µM"
  },
  {
    "Compound": "CC(=O)N[C@@H](Cc1ccc(O)cn1)C(=O)NCc1cccc(Cl)c1",
    "TGI": "> 100 µM"
  },
  {
    "Compound": "O=C1OC(c2ccco2)=N/C1=C\\c1cccc([N+](=O)[O-])c1",
    "TGI": "> 100 µM"
  },
  {
    "Compound": "CC1=CC(=O)N(n2c(Cc3ccccc3)n[nH]c2=O)C1=O",
    "TGI": "> 100 µM"
  },
  {
    "Compound": "CNc1nc2n(CCO)c(-c3ccccc3)c(-c3ccccc3)nc-2c(=O)n1",
    "TGI": "> 50 µM"
  },
  {
    "Compound": "Cc1ccc2[nH]c(C(=O)NN3C(=O)C(C)SC34CCCC(C)C4)c(-c3ccccc3)c2c1 (stereo not drawn)",
    "TGI": "> 100 µM"
  },
  {
    "Compound": "O=c1[nH]c(Nc2nc3ccccc3[nH]2)nc2c1CCC2",
    "TGI": "> 100 µM"
  },
  {
    "Compound": "COC(=O)C(COC(C)=O)NC(=O)/C=C/c1ccc(O)c(OC(C)=O)c1 (stereo not drawn)",
    "TGI": "> 100 µM"
  },
  {
    "Compound": "NC(CCC(=O)O)C(=O)N1CCN(c2nc(N3CCCC3)c3nc(Cl)c(NCc4ccccc4)nc3n2)CC1 (stereo not drawn)",
    "TGI": "25.4 µM"
  },
  {
    "Compound": "O=c1oc2cc(O)ccc2c(O)c1C(c1ccccc1F)c1c(O)c2ccc(O)cc2oc1=O",
    "TGI": "48.4 µM"
  },
  {
    "Compound": "CC(C)CCCC(=O)CCCCCCC(=O)CCN(O)C(=O)C(N)CO (stereo not drawn)",
    "TGI": "34.5 µM"
  },
  {
    "Compound": "CN(/N=C/c1ccc(OCc2cccc(COc3ccc(C=O)cc3)n2)cc1)c1cnn(-c2ccc(Cl)cc2Cl)c(=O)c1Cl",
    "TGI": "> 100 µM"
  },
  {
    "Compound": "Cc1ccc(C)c(COCCOCn2ccc(N)nc2=O)c1",
    "TGI": "> 100 µM"
  },
  {
    "Compound": "COc1cc(/C=C2\\N=C(c3ccccc3)N(c3nc4c(OC)ccc(OC)c4s3)C2=O)ccc1O",
    "TGI": "> 100 µM"
  },
  {
    "Compound": "CNc1nc(N)c(N=O)c(Nc2ccc(Br)cc2)n1",
    "TGI": "> 100 µM"
  },
  {
    "Compound": "O=C(/C(=C/c1cccc([N+](=O)[O-])c1)c1ccccc1)c1ccccc1",
    "TGI": "13.1 µM"
  },
  {
    "Compound": "COC(=O)c1c(C)[nH]c(/C=C2\\N=C(c3ccc[nH]3)C=C2OC)c1C",
    "TGI": "3.04 µM"
  },
  {
    "Compound": "CC(C)Oc1ccc2c(c1)OCC1Cc3ccccc3OC21 (stereo not drawn)",
    "TGI": "> 100 µM"
  },
  {
    "Compound": "O=c1[nH]c(=O)n(C2OC(CO)C(O)C(O)C2O)cc1F (stereo not drawn)",
    "TGI": "> 100 µM"
  },
  {
    "Compound": "COc1cc(NS(=O)(=O)c2ccc(-c3cnc(C4CC4)o3)cc2)ccc1F",
    "TGI": "20.3 µM"
  },
  {
    "Compound": "COc1ccc(N2C(=O)C3ON(C(C(N)=O)c4ccccc4)C(c4cc5ccccc5c5ccccc45)C3C2=O)cc1 (stereo not drawn)",
    "TGI": "> 50 µM"
  },
  {
    "Compound": "COc1cc2c(c(OC)c1OC)C(=O)[C@@H]1c3ccc([N+](=O)[O-])cc3C(=O)N(CCCBr)[C@H]21",
    "TGI": "55.9 µM"
  },
  {
    "Compound": "COc1cc2c(cc1OC)CCc1cc(OC)c(OC)cc1CC2",
    "TGI": "> 100 µM"
  },
  {
    "Compound": "COc1ccc(CCN2CCN(CCc3ccc(OC)cc3)CC2)cc1",
    "TGI": "> 100 µM"
  }
]

Reference source: PubChem BioAssay (NCI)
